System: K-562 leukemia
Experiment: NCI-60 one-dose screen, 48 h (100 = growth as untreated, 0 = no growth, -100 = all killed)
Conditions: 10 µM unless noted
Procedure: Cells are grown in 96 well plates and exposed to the test compound for 48 hours. Compounds are tested at a single concentration, which is 10^-5 M for most compounds. The reported endpoint is percent growth (GI% or GIPRCNT), where numbers from 0 - 100% represent growth inhibition, and numbers from -100% - 0 represent cell death. For example, a value of 40 represents 60% growth inhibition. A value of 0 means no net growth occurred over the course of the experiment. […]
The panel holds about 83,000 compounds, 20% with a hit somewhere; the sample as a whole holds those more often.
The following compounds are shown together with reported growth values.

| RECORD_SMILES | TESTED_TARGET | SCALE_UNIT | growth |
| --- | --- | --- | --- |
| CN(C)C[C@@H]1CCn2cc(c3ccccc32)C2=C(C(=O)NC2=O)c2cn(c3ccccc23)CCO1 | K-562 leukemia | % | -58.7 |
| Cc1cc(Nc2cc(N3CCN(C)CC3)nc(Sc3ccc(NC(=O)C4CC4)cc3)n2)n[nH]1 | K-562 leukemia | % | 8.47 |
| CO[C@H]1C[C@@H]2CC[C@@H](C)[C@@](O)(O2)C(=O)C(=O)N2CCCC[C@H]2C(=O)O[C@H]([C@H](C)C[C@@H]2CC[C@@H](OCCO)[C@H](OC)C2)CC(=O)[C@H](C)/C=C(\C)[C@@H](O)[C@H](OC)C(=O)[C@H](C)C[C@H](C)\C=C/C=C/C=C/1C | K-562 leukemia | % | 42.9 |
| CC(C)n1c(NCCc2ccc(O)c(O)c2)nc2c1c(=O)n(C)c(=O)n2C | K-562 leukemia | % | 97.1 |
| C1=C\COCc2cc(ccc2OCCN2CCCC2)Nc2nccc(n2)-c2cccc(c2)COC/1 | K-562 leukemia | % | 1.93 |
| CCc1nc(C(N)=O)c(Nc2ccc(N3CCC(N4CCN(C)CC4)CC3)c(OC)c2)nc1NC1CCOCC1 | K-562 leukemia | % | 16.1 |
| CC/C(=C(/c1ccc(Cl)cc1)c1ccc(OCCN2CCCCC2)cc1)c1ccc(Cl)cc1 | K-562 leukemia | % | 26.2 |

* * *

system: IGROV1 ovarian; test: NCI-60 one-dose screen, 48 h (100 = growth as untreated, 0 = no growth, -100 = all killed); details: 10 µM unless noted
The panel holds about 83,000 compounds, 20% with a hit somewhere; the sample as a whole holds those more often.
Please assign no whenever growth is at or above 10%, and yes whenever it is below.

| COMPOUND | TESTED_TARGET | LABEL_VALUE |
| --- | --- | --- |
| O=CC(OC(=O)c1ccccc1)C(OC(=O)c1ccccc1)C(COC(c1ccccc1)(c1ccccc1)c1ccccc1)OC(=O)c1ccccc1 (stereo not drawn) | IGROV1 ovarian | yes |
| CCn1c(-c2nonc2N)nc2c(C#CC(C)(C)O)ncc(OC[C@H]3CCCNC3)c21 | IGROV1 ovarian | no |
| CCN(CC)CCOc1ccc(/C(=C(\C)c2ccc(Cl)cc2)c2ccc(Cl)cc2)cc1 | IGROV1 ovarian | no |
| O=C(Nc1ccc(-c2ccnc(Nc3ccc(N4CCOCC4)cc3)n2)cc1)[C@@H]1CCCN1 | IGROV1 ovarian | no |
| C[C@@H]1COC(Nc2ccc3ncnc(Nc4ccc(OCc5nccs5)c(Cl)c4)c3c2)=N1 | IGROV1 ovarian | yes |
| CCN1/C(=C/C=C/c2n(-c3ccccc3)c3ccc(-c4nc5ccccc5s4)cc3[n+]2CC)N(c2ccccc2)c2ccc(-c3nc4ccccc4s3)cc21 | IGROV1 ovarian | no |
| Cc1cccc(Cl)c1NC(=O)c1cnc(Nc2cc(N3CCOCC3)cc(N3CCOCC3)c2)s1 | IGROV1 ovarian | yes |

* * *

tested on: SR leukemia; assay: NCI-60 one-dose screen, 48 h; conditions: 10 µM unless noted
This is part of a sample that, as a whole, favours compounds with a hit. Of some 83,000 tested, about 20% had one in any assay. Activity calls are given as the source filed them. How the source made its calls: active means growth percent below 10; inactive means the rest.
Labels: active, inactive

| RECORD_SMILES | LABEL_VALUE |
| --- | --- |
| COc1cc(N2CCC(N(C)C)CC2)ccc1Nc1ncc(Cl)c(Nc2ccccc2P(C)(C)=O)n1 | active |
| COc1cc(NCCCN)c2ncccc2c1 | inactive |
| C=CC[n+]1c(/C=C/C=C2\N(C)c3ccccc3C2(C)C)sc2ccc(OC)cc21 | inactive |
| CCOc1cc2ncc(C#N)c(Nc3ccc(OCc4ccccn4)c(Cl)c3)c2cc1NC(=O)/C=C/CN(C)C | active |
| Cc1cc(N(CCNc2ccnc3cc(Cl)ccc23)Cc2ccc3c(c2)OCO3)nc(N2CCCC2)n1 | active |
| Cc1ccc(NC(=O)c2ccc(CN3CC[C@H](N(C)C)C3)c(C(F)(F)F)c2)cc1Nc1nccc(-c2cncnc2)n1 | active |
| COc1cc2ncnc3c2cc1OCCCCCN(C)Cc1ccc(Br)cc1N3 | inactive |
| CCc1nc(C(N)=O)c(Nc2ccc(N3CCC(N4CCN(C)CC4)CC3)c(OC)c2)nc1NC1CCOCC1 | active |
| Cc1ccc(C(=O)Nc2ccc(CN3CCN(C)CC3)c(C(F)(F)F)c2)cc1C#Cc1cnc2cccnn12 | active |

* * *

tested on: BT-549 breast; test: NCI-60 one-dose screen, 48 h (100 = growth as untreated, 0 = no growth, -100 = all killed); conditions: 10 µM unless noted
Compounds without any hit were thinned out: in the full panel of roughly 83,000, 20% have a hit.

| MOLECULE | TESTED_TARGET | growth [%] |
| --- | --- | --- |
| C1=C\COCc2cc(ccc2OCCN2CCCC2)Nc2nccc(n2)-c2cccc(c2)COC/1 | BT-549 breast | 21.9 |
| Cn1ncc(Cl)c1-c1cc(C(=O)N[C@H](CN)Cc2ccc(F)c(F)c2)oc1Cl | BT-549 breast | -66.4 |
| Clc1ccc2c(NCCNc3nc(N4CCCC4)nc4ccccc34)ccnc2c1 | BT-549 breast | -11.3 |
| CCc1nc2cc(F)c(/C=C/C(=O)NO)cc2c(=O)n1CCc1ccccc1 | BT-549 breast | 28.8 |
| O=C(NOCCO)c1cc(CN2OCCCC2=O)c(F)c(F)c1Nc1ccc(I)cc1F | BT-549 breast | 80.5 |
| CN1C/C=C\CCOc2cccc(c2)-c2ccnc(n2)Nc2cccc(c2)C1 | BT-549 breast | -69.4 |
| CNC(=O)CN1CCC(Oc2cc3c(Nc4cccc(Cl)c4F)ncnc3cc2OC)CC1 | BT-549 breast | 93.5 |
| COc1ccc(C(=O)c2cc(OC)c(OC)c(OC)c2)cc1/C=C/C(=O)c1ccc(F)cc1 | BT-549 breast | 81.2 |
| C[C@]12O[C@H](C[C@]1(O)CO)n1c3ccccc3c3c4c(c5c6ccccc6n2c5c31)CNC4=O | BT-549 breast | -68.5 |
| COc1cc(F)c(F)c(Nc2ccc(I)cc2F)c1NS(=O)(=O)C1(C[C@H](O)CO)CC1 | BT-549 breast | 62.1 |
| CC(C)C1CCC(C)C(C2(C#N)C(N)=NC(N)=C2C#N)C1=O (stereo unspecified) | BT-549 breast | 98.8 |
| CC(=O)C(C(C)=O)C(c1ccccc1)C(C(C)=O)C(C)=O | BT-549 breast | 105 |
| CCN(CCO)CCCOc1ccc2c(Nc3cc(CC(=O)Nc4cccc(F)c4)[nH]n3)ncnc2c1 | BT-549 breast | 54.7 |
| Cn1cc(-c2ncnc3ccc(-c4cnc(Cl)c(NS(C)(=O)=O)c4)cc23)c2ccccc21 | BT-549 breast | 4.5 |
| COC(=O)[C@@H](NC(=O)[C@@H](OC)[C@@H]1Cc2cc3cc(OC4CC(OC5CC(O)C(O)C(C)O5)C(O)C(C)O4)c(C)c(O)c3c(O)c2C(=O)[C@H]1OC1CC(OC2CC(OC3CC(C)(O)C(O)C(C)O3)C(O)C(C)O2)C(O)C(C)O1)C(C)C (stereo partly specified) | BT-549 breast | -20.7 |
| Cc1cc2c(-c3nc4ccccn4c3N)c(O)c(O)cc2c(O)c1-c1c(C)cc2c(-c3nc4ccccn4c3N)c(O)c(O)cc2c1O | BT-549 breast | 21.2 |
| CC(=O)OCCC/C(=C\c1ccc2ccccc2c1)[N+](=O)[O-] | BT-549 breast | -25.6 |
| Cc1cc2c(-c3nc4ccccn4c3Nc3cccc4ccccc34)c(O)c(O)cc2c(O)c1-c1c(C)cc2c(-c3nc4ccccn4c3Nc3cccc4ccccc34)c(O)c(O)cc2c1O | BT-549 breast | 27.9 |
| CCCCCC(=O)OCc1ccc(Cl)c(Cl)c1 | BT-549 breast | 109 |
| CC1(O)CCC(Nc2cc(-c3ccc(C(F)(F)F)cc3)c(C#N)c3nc4ccccc4n23)CC1 (stereo unspecified) | BT-549 breast | 38.2 |
| Nc1c2c(c(O)c3c1=C(CO)C=N3)=NCCS2 | BT-549 breast | -95.9 |
| NN1C(=O)CSC1=S | BT-549 breast | 93.5 |
| Cc1ncc(-c2ccnc(Nc3ccc(S(C)(=O)=O)cc3)n2)n1C(C)C | BT-549 breast | -11.4 |
| Cc1cc2c(F)c(Oc3ncnn4cc(OC[C@@H](C)OC(=O)[C@H](C)N)c(C)c34)ccc2[nH]1 | BT-549 breast | 80.8 |
| O=C(c1ccc(F)c(F)c1Nc1ccc(I)cc1F)N1CC(O)([C@@H]2CCCCN2)C1 | BT-549 breast | 47.1 |
| O=CC(OC(=O)c1ccccc1)C(OC(=O)c1ccccc1)C(COC(c1ccccc1)(c1ccccc1)c1ccccc1)OC(=O)c1ccccc1 (stereo unspecified) | BT-549 breast | 65.6 |
| CCOC(=O)C1=C(C)N=C2Sc3cc(OC(F)(F)F)ccc3N2[C@H]1c1ccccn1 | BT-549 breast | 59.4 |
| COc1cc2c(cc1O)c(=O)n(CCN(C)C)c1c3cc4c(cc3ncc21)OCO4 | BT-549 breast | -15.5 |
| CC1(/C=N/NC(N)=S)NC(=O)NC1=O (stereo unspecified) | BT-549 breast | 105 |
| CCN1CCN(c2cc(C)nc(N(CCCNc3ccnc4cc(Cl)ccc34)Cc3ccc4c(c3)OCO4)n2)CC1 | BT-549 breast | -42.6 |
| CNC(=O)c1ccccc1Nc1nc(Nc2ccc3c(c2OC)CCC[C@H](N2CCN(CCO)CC2)C3)ncc1Cl | BT-549 breast | 29.7 |
| C[C@@H](C[C@H](CCO)c1cc(C(F)(F)F)cc(C(F)(F)F)c1)c1ccc2ccccc2c1 | BT-549 breast | 102 |
| COc1cc(-c2nc(C(=O)Nc3ccc(C)cc3)nn2-c2ccc(F)c(F)c2)cc(OC)c1OC | BT-549 breast | 100 |
| Cc1cc(Oc2ccccc2)ccc1Nc1ncnc2ccc(-c3cnc(Cl)c(NS(C)(=O)=O)c3)cc12 | BT-549 breast | -0.502 |
| Cc1cc2c(-c3nc4ccccn4c3NC34CC5CC(CC(C5)C3)C4)c(O)c(O)cc2c(O)c1-c1c(C)cc2c(-c3nc4ccccn4c3NC34CC5CC(CC(C5)C3)C4)c(O)c(O)cc2c1O | BT-549 breast | 9.45 |
| CC[C@H](Nc1ncnc2nc[nH]c12)c1nc2cccc(F)c2c(=O)n1-c1ccccc1 | BT-549 breast | 40.2 |

From: PubChem BioAssay (NCI)
